Measurement Target: T1, rat VPAC1 receptor (rat, UniProt P30083 31-459)
T1 sequence (looked up): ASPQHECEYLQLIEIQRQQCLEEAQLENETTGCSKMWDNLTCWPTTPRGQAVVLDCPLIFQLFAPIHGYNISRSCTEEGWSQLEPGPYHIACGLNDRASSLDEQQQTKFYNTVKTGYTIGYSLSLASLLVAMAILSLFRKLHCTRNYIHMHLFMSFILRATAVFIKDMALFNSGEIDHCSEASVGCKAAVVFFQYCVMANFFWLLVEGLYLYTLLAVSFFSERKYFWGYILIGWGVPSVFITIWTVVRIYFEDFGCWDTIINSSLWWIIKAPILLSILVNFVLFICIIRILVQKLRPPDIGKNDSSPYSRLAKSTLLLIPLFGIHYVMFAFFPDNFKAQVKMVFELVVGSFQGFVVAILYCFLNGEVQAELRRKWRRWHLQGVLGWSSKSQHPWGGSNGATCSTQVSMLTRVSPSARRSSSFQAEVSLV
Measurement Protocol: cell-based or functional assay
Where no end group is shown, it is not given here. [ ]: non-standard residue; d: D form. The star is where a group is joined. Hexanoyl = CCCCCC(=O)*; Aib = CC(C)(N)C(=O)O
Endpoint Name: EC50 cAMP, DiscoveRx (nM)
Just the number in nM, nothing appended.

Hexanoyl-HGEGTFTDNYTRLRKQVAAKKYLQSIKNKRYGGPSSGAPPPS [P222] ... 43.9
Hexanoyl-HSDAVFTDNYTRL[Aib]KQLAAK[Aib]YLQSIKNKRYGGPSSGAPPPS (ends and bridges not checked) [P241] ... 61.1
Hexanoyl-HSDAVFTDNYTRLR[Aib]QVAAK[Aib]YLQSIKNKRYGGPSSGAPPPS (ends and bridges not checked) [P264] ... 4.01
Hexanoyl-HSDAVFTDNYTRLR[Aib]QLAAK[Aib]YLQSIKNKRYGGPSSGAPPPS (ends and bridges not checked) [P284] ... 0.44

Record Hexanoyl-HSDAVFTDNYTRLR[Aib]QLAA[Aib]KYLQSIKNKGGPSSGAPPPS (ends and bridges not checked) [P292] , field EC50 cAMP, DiscoveRx: 1.91
